Just for reference, patent US20120065123A1 is where these values come from.

# Experimental target: T1, Gal80 (UniProt P04387 1-435, limits assumed)
# T1 construct: Cy3/Cy5 or otherwise fluorescently labelled on arrays; immobilised in SPR and ELISA
# T1 sequence (looked up): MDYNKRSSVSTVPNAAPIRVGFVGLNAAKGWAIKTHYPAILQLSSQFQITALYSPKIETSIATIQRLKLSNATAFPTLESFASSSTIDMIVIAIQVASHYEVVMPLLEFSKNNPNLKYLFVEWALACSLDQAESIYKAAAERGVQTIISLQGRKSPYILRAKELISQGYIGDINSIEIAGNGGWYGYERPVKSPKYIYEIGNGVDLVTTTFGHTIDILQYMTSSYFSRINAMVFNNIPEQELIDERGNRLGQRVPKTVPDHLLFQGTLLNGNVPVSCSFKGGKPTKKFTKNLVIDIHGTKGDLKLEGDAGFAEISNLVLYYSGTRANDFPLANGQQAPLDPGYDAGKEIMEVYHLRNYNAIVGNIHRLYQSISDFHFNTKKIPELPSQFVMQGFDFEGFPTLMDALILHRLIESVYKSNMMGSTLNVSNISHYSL
# Assay details: light-directed peptide array, 25 pM labelled GAL80 with 1 mg/mL E. coli lysate; against template BP2
Parameter: Fold Enhancement (fold)

> print(dat)
                                     binder  unit  value.reported
1  EGEITEGKKSKRGSC [BP2 variant EGEITEGKKSKRGSC]  fold            10.5
2  EGEWTEGKKSKIGSC [BP2 variant EGEWTEGKKSKIGSC]  fold            10.4
3  EGEITEGKKSKLGSC [BP2 variant EGEITEGKKSKLGSC]  fold            11.1
4  EGEWTEGKKSKGGSC [BP2 variant EGEWTEGKKSKGGSC]  fold            11.1
5  EGEKTEGKKSKTGSC [BP2 variant EGEKTEGKKSKTGSC]  fold             8.5
6  EGEKTEGKKSKGGSC [BP2 variant EGEKTEGKKSKGGSC]  fold            9.24
